Test system: 282377-053-R-J1-PDC complex spheroids, viability
Assay: Anticancer human tumor 282377-053-R-J1-PDC patient-derived colon adenocarcinoma cell line growth inhibition [GQUAD]
Settings: second compound 3.16 µM; first compound 3.16 µM; active compounds read low
// boundary case: viability, T/C equal to 50% maps to Not met; strictly smaller maps to Met

{"compound": "COc1ncnc(C2CC2)c1-c1ncc2cnn(Cc3ccc(-c4nc(C(F)(F)F)cn4C(C)C)cc3)c2n1 + Cc1cnc(CNC(=O)c2c(=O)c3ccc(N4CCCN(C)CC4)nc3n3c2sc2ccccc23)cn1", "target": "282377-053-R-J1-PDC complex spheroids, viability", "classification": "Not met"}
{"compound": "O=c1[nH]cc(F)c(=O)[nH]1 + Cc1cnc(CNC(=O)c2c(=O)c3ccc(N4CCCN(C)CC4)nc3n3c2sc2ccccc23)cn1", "target": "282377-053-R-J1-PDC complex spheroids, viability", "classification": "Not met"}
{"compound": "CCCS(=O)(=O)Nc1ccc(F)c(C(=O)c2c[nH]c3ncc(-c4ccc(Cl)cc4)cc23)c1F + Cc1cnc(CNC(=O)c2c(=O)c3ccc(N4CCCN(C)CC4)nc3n3c2sc2ccccc23)cn1", "target": "282377-053-R-J1-PDC complex spheroids, viability", "classification": "Met"}
{"compound": "CC1COCCN1c1cc(C2(O)CC3CCC(C2)O3)c2cnn(-c3ccn[nH]3)c2n1 (stereo not drawn) + CN(C)c1ccc(Nc2c3ccc(NC(=O)CCN4CCCC4)cc3nc3cc(NC(=O)CCN4CCCC4)ccc23)cc1", "target": "282377-053-R-J1-PDC complex spheroids, viability", "classification": "Met"}
{"compound": "C=CC(=O)N1CCN(c2nc(=O)n(-c3c(C)ccnc3C(C)C)c3nc(-c4c(O)cccc4F)c(F)cc23)C(C)C1 (stereo not drawn) + CN(C)c1ccc(Nc2c3ccc(NC(=O)CCN4CCCC4)cc3nc3cc(NC(=O)CCN4CCCC4)ccc23)cc1", "target": "282377-053-R-J1-PDC complex spheroids, viability", "classification": "Not met"}
{"compound": "COc1ncnc(C2CC2)c1-c1ncc2cnn(Cc3ccc(-c4nc(C(F)(F)F)cn4C(C)C)cc3)c2n1 + CN(C)c1ccc(Nc2c3ccc(NC(=O)CCN4CCCC4)cc3nc3cc(NC(=O)CCN4CCCC4)ccc23)cc1", "target": "282377-053-R-J1-PDC complex spheroids, viability", "classification": "Not met"}
{"compound": "Nc1ccn(C2OC(CO)C(O)C2(F)F)c(=O)n1 (stereo not drawn) + Cc1[nH]c2ccc(F)cc2c1-c1nc2c3cccnc3c3ncccc3c2[nH]1", "target": "282377-053-R-J1-PDC complex spheroids, viability", "classification": "Met"}

###

Tested on: 282377-053-R-J1-PDC complex spheroids, viability
Experiment: Anticancer human tumor 282377-053-R-J1-PDC cell line growth inhibition [GQUAD];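 further: spheroids exposed to compounds for 7 days before readout; percent of vehicle DMSO control viability with 100% = untreated-like growth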
Settings: second compound 0.316 µM; first compound 0.0316 µM; active compounds read low
From the text: DNA G-quadruplex Stabilizer Agents in Combinations in Complex Spheroids A high-throughput screen of multi-cell type tumor spheroids was designed to identify active combinations of DNA G-quadruplex stabilizer agents and targeted small molecules. […] Compounds. […] If the clinical Cmax for an agent had not been determined, the highest concentration tested was 10 microM. […]

{"compound": "C#Cc1c(F)ccc2cc(O)cc(-c3ncc4c(N5CC6CCC(C5)N6)nc(OCC56CCCN5CC(F)C6)nc4c3F)c12 (stereo not given) + Cc1cnc(CNC(=O)c2c(=O)c3ccc(N4CCCN(C)CC4)nc3n3c2sc2ccccc23)cn1", "viability, T/C [%]": 86.5}
{"compound": "Cc1cccc(N(C)C(=O)C2C(O)CCN2c2nc(C)cc(C(F)(F)F)c2C#N)c1 (stereo not given) + Cc1cnc(CNC(=O)c2c(=O)c3ccc(N4CCCN(C)CC4)nc3n3c2sc2ccccc23)cn1", "viability, T/C [%]": 95}
{"compound": "CCc1c2c(nc3ccc(O)cc13)-c1cc3c(c(=O)n1C2)COC(=O)[C@]3(O)CC + Cc1cnc(CNC(=O)c2c(=O)c3ccc(N4CCCN(C)CC4)nc3n3c2sc2ccccc23)cn1", "viability, T/C [%]": 51.5}
{"compound": "Cc1cccc(N(C)C(=O)C2C(O)CCN2c2nc(C)cc(C(F)(F)F)c2C#N)c1 (stereo not given) + Cc1[nH]c2ccc(F)cc2c1-c1nc2c3cccnc3c3ncccc3c2[nH]1", "viability, T/C [%]": 77.2}
{"compound": "O=c1[nH]cc(F)c(=O)[nH]1 + CN(C)c1ccc(Nc2c3ccc(NC(=O)CCN4CCCC4)cc3nc3cc(NC(=O)CCN4CCCC4)ccc23)cc1", "viability, T/C [%]": 106}
